Biological target: MMP-9 (Homo sapiens)
Construct: purchased SIGMA PF024
Sequence (P14780 94-707): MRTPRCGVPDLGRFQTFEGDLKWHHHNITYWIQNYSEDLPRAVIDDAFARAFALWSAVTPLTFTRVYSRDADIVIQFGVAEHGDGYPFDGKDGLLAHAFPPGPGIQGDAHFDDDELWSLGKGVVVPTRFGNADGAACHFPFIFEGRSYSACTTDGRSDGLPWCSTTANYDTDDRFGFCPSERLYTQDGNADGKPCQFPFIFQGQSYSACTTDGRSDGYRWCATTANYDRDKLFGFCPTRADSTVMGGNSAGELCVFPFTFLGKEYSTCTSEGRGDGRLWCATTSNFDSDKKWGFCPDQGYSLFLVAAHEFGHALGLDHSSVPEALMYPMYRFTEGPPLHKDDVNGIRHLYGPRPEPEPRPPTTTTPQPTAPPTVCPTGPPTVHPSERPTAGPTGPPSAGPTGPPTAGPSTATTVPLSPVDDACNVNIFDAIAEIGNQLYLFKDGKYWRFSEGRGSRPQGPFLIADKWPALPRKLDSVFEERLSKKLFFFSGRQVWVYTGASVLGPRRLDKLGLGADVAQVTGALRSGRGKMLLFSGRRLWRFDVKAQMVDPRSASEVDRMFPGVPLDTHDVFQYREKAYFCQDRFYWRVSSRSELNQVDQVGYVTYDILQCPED
Test: FRET peptide cleavage efficiency with MMP-9 (standard pH 7.5; also pH 6.5)
Format: biochemical
Conditions: t = 60 min (Table 9)
Square brackets hold non-standard residues; d marks the D form. Ends that are not written are not given here. Tyr(3-NO2) = N[C@@H](Cc1ccc(O)c([N+](=O)[O-])c1)C(=O)O; Nle = CCCC[C@H](N)C(=O)O; 2Abz = Nc1ccccc1C(=O)O
Below: a set of entries, each annotated with reported % cleavage MMP-9 t = 60 min.
MEASUREMENT LABEL: % cleavage MMP-9 t = 60 min (%)

>>> reported_measurement("RGRKSQPLVD ([2Abz]RGRKSQPLVD[Tyr(3-NO2)]-NH2) [LNK041]")
1
>>> reported_measurement("SGRVQPLVD (not fully specified (N-terminus, C-terminus)) [LNK047]")
2
>>> reported_measurement("RQRRSPLGLAG ([2Abz]RQRRSPLGLAG[Tyr(3-NO2)]-NH2) [LNK010]")
99
>>> reported_measurement("SGRVANLVG (not fully specified (N-terminus, C-terminus)) [LNK017]")
94
>>> reported_measurement("RGRKSPY-Nle-LQG ([2Abz]RGRKSPY[Nle]LQG[Tyr(3-NO2)]-NH2) [LNK038]")
71
